// reported normalized growth per item
assayExplanation: chemical genetic growth profiling, strain panel (AID 1159580);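 also: tested at 20 µM; growth read once vehicle control cultures reached saturation at 30 °C; 1 = growth at the plate median or of vehicle wells; lower values mean less growth of the strain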
conditionParameters: S. cerevisiae deletion strains, growth OD, locus YDR052C, strain DBF4, hits give low values
Among all 5,500 compounds or so, about 2,000 (36%) were called active. Inconclusive results (about 18%) are left out. The list shows a part of the results.
endpoint: normalized growth

- compound: "O=[N+]([O-])c1cc(Br)cnc1Sc1nnc(SCC2CC2)s1"
  observedMeasurement: 0.964
- compound: "N#CC(C#N)=C/C=C(/Sc1ccc(F)c(Cl)c1)c1ccc(Cl)cc1"
  observedMeasurement: 0.956
- compound: "Cc1cc(Br)ccc1-n1c(Sc2c([N+](=O)[O-])cc(C(F)(F)F)cc2[N+](=O)[O-])nc2ccccc2c1=O"
  observedMeasurement: 0.989
- compound: "CCOC(=O)C1=C(N)OC2=C(C(=O)CC(C)(C)C2)C1c1ccc(Cl)cc1Cl (centres undefined)"
  observedMeasurement: 0.979

----------
assayExplanation: chemical genetic growth profiling, strain panel (AID 1159580);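 also: tested at 20 µM; growth read once vehicle control cultures reached saturation at 30 °C; 1 = growth at the plate median or of vehicle wells; lower values mean less growth of the strain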
conditionParameters: S. cerevisiae deletion strains, growth OD, locus YNR052C, strain pop2
Among all 5,500 compounds or so, about 2,000 (36%) were called active. Another 18% or so got no clear call; they are omitted. Cut-off read from the data, not from the text of the source: active = normalized growth mostly below about 0.91 (no sharp cut-off); inconclusive = no clear call, values can overlap the other calls; inactive = mostly above about 0.92. Some of the results follow.
Possible outcomes: active, inactive

- molecule: "CN/C(=C\\[N+](=O)[O-])NCCSCc1ccc(CN(C)C)o1"
  cat: "inactive"
- molecule: "CC(=O)O[C@@H]1CC2C(C)(C)C=CC(=O)[C@]2(C)C2CC[C@@]3(C)[C@H](c4ccoc4)OC(=O)C4OC43[C@@]21C (stereo not given in full)"
  cat: "inactive"
- molecule: "COc1ccccc1OCCNCC(O)COc1cccc2[nH]c3ccccc3c12 (stereo not given)"
  cat: "inactive"
- molecule: "C=CC(C1=CC(=O)C=CC1=O)c1ccccc1 (stereo not given)"
  cat: "inactive"
- molecule: "CC1(C)C(=O)C=C[C@@]2(C)C1=C(O)C(=O)[C@]1(C)C2CC[C@@]2(C)[C@H](c3ccoc3)C[C@H]3O[C@]321 (stereo not given in full)"
  cat: "active"

----------
// reported normalized growth per item
assayExplanation: chemical genetic growth profiling, strain panel (AID 1159580);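 also: tested at 20 µM; growth read once vehicle control cultures reached saturation at 30 °C; 1 = growth at the plate median or of vehicle wells; lower values mean less growth of the strain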
conditionParameters: S. cerevisiae deletion strains, growth OD, locus YEL037C, strain rad23, hits give low values
Among all 5,500 compounds or so, about 2,000 (36%) were called active. Inconclusive results (about 18%) are left out. This is one part of the list.

- compound: "CN[C@H](CC(=O)O)C(=O)O"
  normalized growth: "1.02 (inactive)"
- compound: "CC(=O)Oc1ccc(Cl)c2cccnc12"
  normalized growth: "0.0595 (active)"
- compound: "CC1(C)CCCC2(C)C3C1[C@@H](O)C2(C)C[C@H]3O (stereo partly specified)"
  normalized growth: "1.03 (inactive)"
- compound: "CC(C)NCC(O)c1ccc(O)c(O)c1 (stereo unspecified)"
  normalized growth: "0.993 (inactive)"
- compound: "O=[N+]([O-])c1cc(O)c(O)c([N+](=O)[O-])c1"
  normalized growth: "1.01 (inactive)"
- compound: "CCCC1O[C@@H]2CC3C4CCC5=CC(=O)C=CC5(C)C4[C@@H](O)CC3(C)[C@]2(C(=O)CO)O1 (stereo partly specified)"
  normalized growth: "0.995 (inactive)"
- compound: "NCC(O)c1ccc(O)cc1 (stereo unspecified)"
  normalized growth: "1.01 (inactive)"
- compound: "Oc1c(Br)cc(Br)c2cccnc12"
  normalized growth: "0.0573 (active)"
- compound: "CC(C)(C)NCC(O)c1ccccc1Cl (stereo unspecified)"
  normalized growth: "0.994 (inactive)"
- compound: "CCCCC1=NC2(CCCC2)C(=O)N1Cc1ccc(-c2ccccc2-c2nn[nH]n2)cc1"
  normalized growth: "1.02 (inactive)"
- compound: "CCN(CC)CCNC(=O)c1cc(S(C)(=O)=O)ccc1OC"
  normalized growth: "0.971 (inactive)"
- compound: "COc1c2c(cc3c1OCO3)CCN(C)C2"
  normalized growth: "1 (inactive)"
- compound: "O=c1[nH]c(=O)n(C2C[C@@H](O)[C@@H](CO)O2)cc1F (stereo partly specified)"
  normalized growth: "0.993 (inactive)"
- compound: "CCC(Cc1c(I)cc(I)c(N)c1I)C(=O)O (stereo unspecified)"
  normalized growth: "0.947 (inactive)"
- compound: "CC(C)=CCC[C@](C)(O)C1CC=C(C)CC1 (stereo partly specified)"
  normalized growth: "0.978 (inactive)"
- compound: "OC[C@@H](O)[C@@H](O[C@@H]1O[C@H](CO)[C@@H](O)[C@H](O)[C@H]1O)[C@H](O)[C@@H](O)CO"
  normalized growth: "0.966 (inactive)"
- compound: "C=C[C@@H](C1=CC(=O)C(OC)=C(OC)C1=O)c1ccccc1"
  normalized growth: "0.952 (inactive)"
- compound: "CCCCC(CC)CN1CN(CC(CC)CCCC)CC(C)(N)C1 (stereo unspecified)"
  normalized growth: "0.0554 (active)"
- compound: "NC[C@H](O)c1ccc(O)c(O)c1"
  normalized growth: "0.986 (inactive)"
- compound: "Nc1ccc(S(=O)(=O)Nc2ccc(Cl)nn2)cc1"
  normalized growth: "0.991 (inactive)"
- compound: "O=C(O)CCCCC1CCSS1 (stereo unspecified)"
  normalized growth: "0.976 (inactive)"
- compound: "O=C(O)CF"
  normalized growth: "1.03 (inactive)"
- compound: "CNC[C@@H](O)c1ccc(O)c(O)c1"
  normalized growth: "1 (inactive)"
- compound: "Nc1ccc([As](=O)(O)O)cc1"
  normalized growth: "0.997 (inactive)"
- compound: "Oc1ccc(Cl)c2cccnc12"
  normalized growth: "0.0834 (active)"
- compound: "O=[N+]([O-])c1ccc(O)c([N+](=O)[O-])c1"
  normalized growth: "0.797 (active)"
